- Tested on: SN12C renal
- Assay explanation: NCI tumour cell line growth inhibition, 48 h

# Compound, TGI
data = [
    ("N#CCCN(CCN(CCN(C(=O)Nc1ccccc1)c1ccccc1)C(=O)Nc1ccccc1)C(=O)Nc1ccccc1", "> 100 µM"),
    ("CCNc1nc2ccccc2nc1NCC", "> 100 µM"),
    ("NNC(=S)N/N=C(\\c1nc2ccc(Cl)cc2[nH]c1=O)C(O)c1ccc(Cl)cc1Cl (centres undefined)", "> 100 µM"),
    ("CC(=O)c1c[nH]c2ccc(-c3ccnc(Nc4ccc(NC(=O)c5cccc(F)c5)c(CN5CCOCC5)c4)n3)cc12", "> 23.3 µM"),
    ("CCOC(=O)C(=C=Cc1cccs1)C(=O)c1ccccc1", "29.3 µM"),
    ("O=C1CCc2cc([N+](=O)[O-])ccc2O1", "> 100 µM"),
    ("O=C(CC1Sc2ccccc2NC1=O)Nc1ccc([N+](=O)[O-])cc1[N+](=O)[O-] (centres undefined)", "29.7 µM"),
    ("O=c1[nH]c(=O)n(COCCO)cc1-c1ccccc1", "> 100 µM"),
    ("O=C1c2cc(Br)ccc2-c2c1c1ccccc1c(=O)n2CCCCl", "55.9 µM"),
    ("O=C(O)/C=C/C(=O)Nc1cccc2c1-c1ccccc1C2=O", "> 100 µM"),
    ("COc1cc(C2C3=C(COC3=O)N(CCO)c3cc4c(cc32)OCCO4)cc(OC)c1O (centres undefined)", "> 50 µM"),
    ("Nc1c2c(nc3ccccc13)-c1ccccc1CCC2", "36.5 µM"),
    ("COC(=O)C1=C(SC)SC2(C(=O)OC)C3C=C(C)C4C(N13)C42C(=O)OC (centres undefined)", "> 100 µM"),
    ("NC(=O)c1ccc(N)nc1", "> 400 µM"),
]

* * *

- Test system: SF-539 CNS
- Assay explanation: NCI tumour cell line growth inhibition, 48 h
Collected GI50 values appear next to each entry.
Property name: GI50

# Compound, Tested on, Property name, Reading
measured = [
    ("COc1cc(C2C3=C(COC3=O)N(CCO)c3cc4c(cc32)OCCO4)cc(OC)c1O (stereo not given)", "SF-539 CNS", "GI50", "1.22 µM"),
    ("COc1cc2c(cc1OC)[C@@H]1[C@H](C2=O)c2ccc([N+](=O)[O-])cc2C(=O)N1CCCBr", "SF-539 CNS", "GI50", "0.387 µM"),
    ("COC(=O)C1=C(O)C(C(=O)OC)[C@@]2(O)[C@@H](C(=O)OC)C(c3ccccc3C(F)(F)F)C[C@@H]1[C@@H]2C(=O)OC (stereo not given in full)", "SF-539 CNS", "GI50", "2.14 µM"),
    ("N#CC1=C(N)Oc2c(sc3c(F)cccc23)C1c1ccc(Cl)cc1 (stereo not given)", "SF-539 CNS", "GI50", "2.05 µM"),
    ("NS(=O)(=O)OC[C@H]1O[C@@H](n2cnc3c(N[C@H]4CCc5ccccc54)ncnc32)[C@H](O)[C@@H]1O", "SF-539 CNS", "GI50", "0.0351 µM"),
    ("CC(C)=CCNc1ncnc2c1ncn2C1OC(COP(=O)(O)O)C(O)C1O (stereo not given)", "SF-539 CNS", "GI50", "4 µM"),
    ("COC(=O)C1=C(O)C(C(=O)OC)[C@@]2(O)[C@@H](C(=O)OC)C(c3ccc(OC(=O)C(Cc4ccccc4)NC(C)=O)cc3)C[C@@H]1[C@@H]2C(=O)OC (stereo not given in full)", "SF-539 CNS", "GI50", "33.6 µM"),
    ("COc1ccc(-c2ccc(/C=N/n3cnn(CN4CCN(C)CC4)c3=S)o2)c([N+](=O)[O-])c1", "SF-539 CNS", "GI50", "17 µM"),
    ("COc1cccc(-n2cnc3c(N/N=C/c4ccncc4)ncnc32)c1", "SF-539 CNS", "GI50", "> 18.9 µM"),
    ("CCCCCCCC(=O)SCC/C=C/[C@@H]1CC(=O)NCc2cccc(n2)CN(Cc2ccc(Cl)cc2)CC(=O)N[C@@H](C(C)C)C(=O)O1", "SF-539 CNS", "GI50", "16.3 µM"),
]
